Target: Mannose-6-phosphate isomerase (Homo sapiens)
Assay: inhibitors of human PMI, primary screen, biochemical, fluorescence intensity, coupled assay (AID 1209);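 also: plate controls were DMSO vehicle for no effect and wells lacking substrate for full effect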
Details: purified PMI enzyme, at 20 µM, stronger effect = higher value
About 810 (0.43%) of roughly 190,000 compounds were called active. The sample holds actives, similar compounds and a random draw of the others, so the mix is not that of the screen.
# maps each entry to its inhibition
measurement_type: inhibition (%)

{"columns": ["molecule", "measured"],
 "data": [
  ["CC(C(=O)NCCS(=O)(=O)c1ccc(Cl)cc1)S(=O)(=O)c1ccc(Cl)cc1 (stereo not given)", -15.8],
  ["CC1CCc2c(sc(NC(=O)COC(=O)C3CCCO3)c2C#N)C1 (stereo not given)", -3.7],
  ["O=C(CS(=O)(=O)c1ccc(Cl)cc1)NCCS(=O)(=O)c1ccc(Cl)cc1", 59.5],
  ["O=C(O)/C(=C/c1ccco1)c1ccccc1", -8],
  ["CC1CC(C)(C)NC(=S)N1CCCC(=O)N1CCN(c2ccccc2F)CC1 (stereo not given)", -3.8],
  ["NCc1oc(-c2ccccc2)cc1C(=O)O", -55.4],
  ["O=C(c1cc2nc(-c3ccco3)cc(C(F)(F)F)n2n1)N1CCCCCC1", -12.3],
  ["COc1cccc(/C=N/NC(=O)c2ccccc2)c1OS(=O)(=O)c1ccccc1", 2.4],
  ["CCOC(=O)Cc1csc(NC(=O)NC2(C(F)(F)F)Oc3ccccc3O2)n1", 22.4],
  ["CCOC(=O)Cc1csc(NC(=O)NC2(C(F)(F)F)Oc3cc(Cl)c(Cl)cc3O2)n1", 57.5],
  ["O=C(N/N=C/c1ccc(N2CCOCC2)o1)c1cccc(C(F)(F)F)c1", -5.7],
  ["Cc1ccc(S(=O)(=O)CCNC(=O)Cc2ccc(Cl)cc2)cc1", 3.4],
  ["CCOC(=O)Cc1csc(NC(=O)NC2(C(F)(F)F)Oc3ccc(Cl)cc3O2)n1 (stereo not given)", 51.8],
  ["NCCCNC(=O)c1ccc(/C=N/O)nc1", 0.9],
  ["CCCCC(=O)Nc1sc(C(=O)N(CC)CC)c(C)c1C(=O)OC", 58.3]
]}
